target: Somatostatin receptor type 2 (Homo sapiens, UniProt P30874)
Sequence (P30874 whole entry): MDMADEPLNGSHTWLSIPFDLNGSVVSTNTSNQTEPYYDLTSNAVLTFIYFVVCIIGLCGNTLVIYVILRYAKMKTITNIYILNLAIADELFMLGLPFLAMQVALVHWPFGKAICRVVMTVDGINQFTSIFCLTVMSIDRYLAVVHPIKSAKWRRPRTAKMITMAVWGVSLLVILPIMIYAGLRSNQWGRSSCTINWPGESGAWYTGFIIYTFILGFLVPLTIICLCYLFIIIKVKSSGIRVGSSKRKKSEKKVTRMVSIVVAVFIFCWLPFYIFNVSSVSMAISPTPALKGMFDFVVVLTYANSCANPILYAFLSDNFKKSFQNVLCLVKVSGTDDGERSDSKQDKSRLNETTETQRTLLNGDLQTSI
pKi: −log10 of the molar value. Bridge positions count the residues as written; N and C are the ends. Square brackets hold non-standard residues; d marks the D form. Peptide text beside a SMILES is read from it. * marks the point of attachment. NH(1-naphthylmethyl) = c1ccc2c(CN*)cccc2c1
Observation type: pKi

{"columns": ["Compound", "Target or system", "Observation type", "Meas value"],
 "data": [
  ["C[C@@H](O)[C@H](NC(=O)[C@H](Cc1ccccc1)NC(=O)[C@@H](NC(=O)[C@H](CCCCN)NC(=O)[C@@H](Cc1c[nH]c2ccccc12)NC(=O)[C@H](Cc1ccccc1)NC(=O)[C@H](Cc1ccccc1)NC(=O)[C@H](N)Cc1ccccc1)[C@@H](C)O)C(N)=O [CAS_133073-82-2] (H-[dF]FF[dW]KTFT-NH2)", "Somatostatin receptor type 2 (Homo sapiens, UniProt P30874)", "pKi", 7.87],
  ["CC(O)C1NC(=O)C(CCCCN)NC(=O)C(Cc2c[nH]c3ccccc23)NC(=O)C(Cc2ccccc2)NC(=O)C(NC(=O)C(N)Cc2ccccc2)CSSCC(C(=O)NCc2cccc3ccccc23)NC1=O (stereo not drawn) [EC5-21] (H-FCFWKTC-{NH(1-naphthylmethyl)}; disulfide 2-7; configuration not given here)", "Somatostatin receptor type 2 (Homo sapiens, UniProt P30874)", "pKi", 10.55],
  ["CC(O)C1NC(=O)C(CCCCN)NC(=O)C(Cc2c[nH]c3ccccc23)NC(=O)C(Cc2ccc(O)cc2)NC(=O)C(NC(=O)C(N)Cc2ccccc2)CSSCC(C(=O)NCc2cccc3ccccc23)NC1=O (stereo not drawn) [BIM 23060] (H-FCYWKTC-{NH(1-naphthylmethyl)}; disulfide 2-7; configuration not given here)", "Somatostatin receptor type 2 (Homo sapiens, UniProt P30874)", "pKi", 9.15]
]}
